- Tested on: Staphylococcus aureus
- assayRemarks: Antibacterial activity against Staphylococcus aureus assessed as growth inhibition
- Format: functional
# reported MIC; entries follow

- structureSmilesString: "CCc1[nH]c2nc(Sc3cccnc3)nc(Cl)c2c1C(F)F"
  censoringQualifier: "="
  MIC [µg/mL]: 64
- structureSmilesString: "CCc1[nH]c2nc(Sc3cccnc3)nc(Cl)c2c1C=O"
  censoringQualifier: "="
  MIC [µg/mL]: 64
- structureSmilesString: "CCc1[nH]c2nc(Sc3cccnc3)nc(Cl)c2c1Cl"
  censoringQualifier: "="
  MIC [µg/mL]: 4
- structureSmilesString: "CCc1[nH]c2nc(Sc3cccnc3)nc(Cl)c2c1Br"
  censoringQualifier: "="
  MIC [µg/mL]: 2
- structureSmilesString: "CCc1[nH]c2nc(Sc3cccnc3)nc(Cl)c2c1C(C)=O"
  censoringQualifier: "="
  MIC [µg/mL]: 64
- structureSmilesString: "CCc1cc2c(Cl)nc(Sc3cccnc3)nc2[nH]1"
  censoringQualifier: ">"
  MIC [µg/mL]: 64
